experiment: Protein binding in Beagle dog serum; assay type: ADME, cell-free, Canis lupus familiaris; settings: read-out: PPB (converted)

{"CHEMICAL SMILES": "CC(C)Cc1cc(-c2ccc(CCNC[C@H](O)c3ccccc3)cc2)ccc1C(=O)NS(C)(=O)=O.Cl", "fraction unbound": 0.08}
{"CHEMICAL SMILES": "CS(=O)(=O)NC(=O)c1ccc(-c2ccc(CCNC[C@H](O)c3cccnc3)cc2)cc1OC1CCCCC1.Cl.Cl", "fraction unbound": 0.17}
{"CHEMICAL SMILES": "CC(C)Nc1cc(-c2ccc(CCNC[C@H](O)c3ccccc3)cc2)ccc1C(=O)NS(C)(=O)=O.Cl.Cl", "fraction unbound": 0.1}
{"CHEMICAL SMILES": "O=C(O)c1ccc(-c2ccc(CCNC[C@H](O)c3cccnc3)cc2)cc1OC1CCCCC1", "fraction unbound": 0.11}
{"CHEMICAL SMILES": "CC(C)Cc1cc(-c2ccc(CCNC[C@H](O)c3ccccc3)cc2)ccc1C(=O)O", "fraction unbound": 0.14}
{"CHEMICAL SMILES": "CC(C)Sc1cc(-c2ccc(CCNC[C@H](O)c3ccccc3)cc2)ccc1C(=O)NS(C)(=O)=O.Cl", "fraction unbound": 0.1}

----------
assay: Total clearance in rat at 0.32 mg/kg, iv by cassette assay; format: ADME, organism-based; parameters: dose 0.32 mg/kg, route intravenous; settings: in vivo
Label scheme for clearance: lower than 20 mL/min/kg is -1, 20 mL/min/kg and above is 1.

{"CHEMICAL SMILES": "CS(=O)(=O)NC(=O)c1ccc(-c2ccc(CCNC[C@H](O)c3cnccc3N)cc2)cc1OC1CCCCC1.Cl.Cl", "QUALITATIVE LABEL": 1}
{"CHEMICAL SMILES": "CC(C)Nc1cc(-c2ccc(CCNC[C@H](O)c3ccccc3)cc2)ccc1C(=O)NS(C)(=O)=O.Cl.Cl", "QUALITATIVE LABEL": -1}
{"CHEMICAL SMILES": "CS(=O)(=O)NC(=O)c1ccc(-c2ccc(CCNC[C@H](O)c3cccnc3)cc2)cc1OC1CCCCC1.Cl.Cl", "QUALITATIVE LABEL": -1}
{"CHEMICAL SMILES": "CC(C)Cc1cc(-c2ccc(CCNC[C@H](O)c3ccccc3)cc2)ccc1C(=O)NS(C)(=O)=O.Cl", "QUALITATIVE LABEL": 1}

----------
biological target: Beta-3 adrenergic receptor (Homo sapiens, UniProt P13945); test: Agonist activity at human recombinant beta3 adrenergic receptor expressed in CHO cells assessed as cAMP accumulation by enzyme immunoassay; type: functional, cell-based; settings: read-out: pEC50 (converted)
Sequence (P13945 whole entry): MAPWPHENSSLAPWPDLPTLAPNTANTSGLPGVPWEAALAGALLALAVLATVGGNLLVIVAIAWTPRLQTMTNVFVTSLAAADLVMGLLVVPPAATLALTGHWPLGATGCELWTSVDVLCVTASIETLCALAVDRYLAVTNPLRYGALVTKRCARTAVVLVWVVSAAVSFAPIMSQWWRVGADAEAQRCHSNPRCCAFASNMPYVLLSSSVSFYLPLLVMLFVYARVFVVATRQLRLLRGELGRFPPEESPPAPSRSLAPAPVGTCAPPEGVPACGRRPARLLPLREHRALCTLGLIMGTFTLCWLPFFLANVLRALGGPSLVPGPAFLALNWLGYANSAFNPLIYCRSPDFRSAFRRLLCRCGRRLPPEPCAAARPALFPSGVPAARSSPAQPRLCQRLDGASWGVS
EC50 values by entry
OUTCOME MEASURE: EC50 (nM)

{"CHEMICAL SMILES": "O=C(O)c1ccc(-c2ccc(CCNC[C@H](O)c3cccnc3)cc2)cc1OC1CCCCC1", "ASSAYED SYSTEM": "Beta-3 adrenergic receptor (Homo sapiens, UniProt P13945)", "OBSERVED": 0.251}
{"CHEMICAL SMILES": "CC(C)Oc1cc(-c2ccc(CCNC[C@H](O)c3cccnc3)cc2)ccc1C(=O)O", "ASSAYED SYSTEM": "Beta-3 adrenergic receptor (Homo sapiens, UniProt P13945)", "OBSERVED": 1.58}
{"CHEMICAL SMILES": "CC(C)Oc1cc(-c2ccc(CCNC[C@H](O)c3ccccc3)cc2)ccc1C(=O)NS(C)(=O)=O.Cl", "ASSAYED SYSTEM": "Beta-3 adrenergic receptor (Homo sapiens, UniProt P13945)", "OBSERVED": 0.631}
{"CHEMICAL SMILES": "CS(=O)(=O)NC(=O)c1ccc(-c2ccc(CCNC[C@H](O)c3ccccc3)cc2)cc1OC1CCCCC1.Cl", "ASSAYED SYSTEM": "Beta-3 adrenergic receptor (Homo sapiens, UniProt P13945)", "OBSERVED": 0.126}
{"CHEMICAL SMILES": "CS(=O)(=O)NC(=O)c1ccc(-c2ccc(CCNC[C@H](O)c3ccc(N)cc3)cc2)cc1OC1CCCCC1.Cl.Cl", "ASSAYED SYSTEM": "Beta-3 adrenergic receptor (Homo sapiens, UniProt P13945)", "OBSERVED": 0.0631}
{"CHEMICAL SMILES": "CC(C)Oc1cc(-c2ccc(CCNC[C@H](O)c3ccc(N)cc3)cc2)ccc1C(=O)NS(C)(=O)=O", "ASSAYED SYSTEM": "Beta-3 adrenergic receptor (Homo sapiens, UniProt P13945)", "OBSERVED": 0.2}

----------
assay: Bioavailability in Beagle dog at 0.10 mg/kg, po and iv by cassette assay; type: ADME, organism-based, Canis lupus familiaris; conditions: in vivo, 0.1 mg/kg

{"CHEMICAL SMILES": "CS(=O)(=O)NC(=O)c1ccc(-c2ccc(CCNC[C@H](O)c3ccccc3)cc2)cc1Oc1ccccc1.Cl", "bioavailability (%)": 98}
{"CHEMICAL SMILES": "CS(=O)(=O)NC(=O)c1ccc(-c2ccc(CCNC[C@H](O)c3ccccc3)cc2)cc1CC1CCCCC1.Cl", "bioavailability (%)": 70}
{"CHEMICAL SMILES": "CC(C)Oc1cc(-c2ccc(CCNC[C@H](O)c3ccccc3)cc2)ccc1C(=O)NS(C)(=O)=O.Cl", "bioavailability (%)": 75}
{"CHEMICAL SMILES": "CS(=O)(=O)NC(=O)c1ccc(-c2ccc(CCNC[C@H](O)c3cccnc3)cc2)cc1NC1CCCCC1.Cl.Cl.Cl", "bioavailability (%)": 21}
{"CHEMICAL SMILES": "CS(=O)(=O)NC(=O)c1ccc(-c2ccc(CCNC[C@H](O)c3cnccc3N)cc2)cc1OC1CCCCC1.Cl.Cl", "bioavailability (%)": 54}
{"CHEMICAL SMILES": "CC(C)Sc1cc(-c2ccc(CCNC[C@H](O)c3ccccc3)cc2)ccc1C(=O)NS(C)(=O)=O.Cl", "bioavailability (%)": 75}
{"CHEMICAL SMILES": "CS(=O)(=O)NC(=O)c1ccc(-c2ccc(CCNC[C@H](O)c3cccnc3)cc2)cc1OC1CCCCC1.Cl.Cl", "bioavailability (%)": 81}
{"CHEMICAL SMILES": "CS(=O)(=O)NC(=O)c1ccc(-c2ccc(CCNC[C@H](O)c3ccccc3)cc2)cc1NC1CCCCC1.Cl.Cl", "bioavailability (%)": 22}
{"CHEMICAL SMILES": "CS(=O)(=O)NC(=O)c1ccc(-c2ccc(CCNC[C@H](O)c3ccc(N)cc3)cc2)cc1OC1CCCCC1.Cl.Cl", "bioavailability (%)": 68}

----------
Listing of entries alongside the reported log10(clearance).
experiment: Total clearance in Beagle dog at 0.10 mg/kg, iv by cassette assay; format: ADME, organism-based, Canis lupus familiaris; parameters: dose 0.1 mg/kg, route intravenous; settings: in vivo, 0.1 mg/kg
OUTCOME MEASURE: log10(clearance) (log10 of the value in mL/min/kg)

{"CHEMICAL SMILES": "CS(=O)(=O)NC(=O)c1ccc(-c2ccc(CCNC[C@H](O)c3cccnc3)cc2)cc1OC1CCCCC1.Cl.Cl", "OBSERVED": 0.51}
{"CHEMICAL SMILES": "CS(=O)(=O)NC(=O)c1ccc(-c2ccc(CCNC[C@H](O)c3ccccc3)cc2)cc1NC1CCCCC1.Cl.Cl", "OBSERVED": 1.00}
{"CHEMICAL SMILES": "CC(C)Sc1cc(-c2ccc(CCNC[C@H](O)c3cccnc3)cc2)ccc1C(=O)NS(C)(=O)=O.Cl.Cl", "OBSERVED": 0.73}
{"CHEMICAL SMILES": "CS(=O)(=O)NC(=O)c1ccc(-c2ccc(CCNC[C@H](O)c3cnccc3N)cc2)cc1OC1CCCCC1.Cl.Cl", "OBSERVED": 1.54}
{"CHEMICAL SMILES": "CS(=O)(=O)NC(=O)c1ccc(-c2ccc(CCNC[C@H](O)c3ccccc3)cc2)cc1Oc1ccccc1.Cl", "OBSERVED": 0.34}
{"CHEMICAL SMILES": "CC(C)Nc1cc(-c2ccc(CCNC[C@H](O)c3cccnc3)cc2)ccc1C(=O)NS(C)(=O)=O.Cl.Cl.Cl", "OBSERVED": 1.21}
{"CHEMICAL SMILES": "CC(C)Oc1cc(-c2ccc(CCNC[C@H](O)c3ccccc3)cc2)ccc1C(=O)NS(C)(=O)=O.Cl", "OBSERVED": 0.36}
{"CHEMICAL SMILES": "CC(C)Sc1cc(-c2ccc(CCNC[C@H](O)c3ccccc3)cc2)ccc1C(=O)NS(C)(=O)=O.Cl", "OBSERVED": 0.46}

----------
molecular target: Beta-3 adrenergic receptor (Homo sapiens); test: Agonist activity at human recombinant beta3 adrenergic receptor expressed in CHO cells assessed as cAMP accumulation by enzyme immunoassay; assay type: functional, cell-based; conditions: read-out: EC50

{"CHEMICAL SMILES": "CS(=O)(=O)NC(=O)c1ccc(-c2ccc(CCNC[C@H](O)c3ccccc3)cc2)cc1OC1CCCCC1.Cl", "EC50 [nM]": 0.43}
{"CHEMICAL SMILES": "COc1cc(-c2ccc(CCNC[C@H](O)c3ccccc3)cc2)ccc1C(=O)NS(C)(=O)=O", "EC50 [nM]": 18}
{"CHEMICAL SMILES": "CS(=O)(=O)NC(=O)c1ccc(-c2ccc(CCNC[C@H](O)c3cccnc3)cc2)cc1C1CCCC1.Cl.Cl", "EC50 [nM]": 0.29}
{"CHEMICAL SMILES": "CS(=O)(=O)NC(=O)c1ccc(-c2ccc(CCNC[C@H](O)c3ccccc3)cc2)cc1OC1CCCCCC1", "EC50 [nM]": 0.38}
{"CHEMICAL SMILES": "CC(C)Oc1cc(-c2ccc(CCNC[C@H](O)c3cccnc3)cc2)ccc1C(=O)NS(C)(=O)=O", "EC50 [nM]": 1}
{"CHEMICAL SMILES": "CS(=O)(=O)NC(=O)c1ccc(-c2ccc(CCNC[C@H](O)c3ccccc3)cc2)cc1NC1CCCCC1.Cl.Cl", "EC50 [nM]": 0.14}
{"CHEMICAL SMILES": "CS(=O)(=O)NC(=O)c1ccc(-c2ccc(CCNC[C@H](O)c3cccnc3)cc2)cc1NC1CCCCC1.Cl.Cl.Cl", "EC50 [nM]": 0.062}
{"CHEMICAL SMILES": "CC(C)Nc1cc(-c2ccc(CCNC[C@H](O)c3ccccc3)cc2)ccc1C(=O)NS(C)(=O)=O.Cl.Cl", "EC50 [nM]": 0.6}
{"CHEMICAL SMILES": "CC(C)Sc1cc(-c2ccc(CCNC[C@H](O)c3ccccc3)cc2)ccc1C(=O)NS(C)(=O)=O.Cl", "EC50 [nM]": 0.32}
{"CHEMICAL SMILES": "CS(=O)(=O)NC(=O)c1ccc(-c2ccc(CCNC[C@H](O)c3cccnc3)cc2)cc1OC1CCCCC1.Cl.Cl", "EC50 [nM]": 0.13}
{"CHEMICAL SMILES": "CS(=O)(=O)NC(=O)c1ccc(-c2ccc(CCNC[C@H](O)c3ccc(N)cc3)cc2)cc1OC1CCCCC1.Cl.Cl", "EC50 [nM]": 0.5}
{"CHEMICAL SMILES": "CC(C)Oc1cc(-c2ccc(CCNC[C@H](O)c3ccc(N)cc3)cc2)ccc1C(=O)NS(C)(=O)=O", "EC50 [nM]": 5.5}
{"CHEMICAL SMILES": "CCCSc1cc(-c2ccc(CCNC[C@H](O)c3ccccc3)cc2)ccc1C(=O)NS(C)(=O)=O.Cl", "EC50 [nM]": 1.4}
{"CHEMICAL SMILES": "CS(=O)(=O)NC(=O)c1ccc(-c2ccc(CCNC[C@H](O)c3ccccc3)cc2)cc1CC1CCCCC1.Cl", "EC50 [nM]": 0.54}
{"CHEMICAL SMILES": "CS(=O)(=O)NC(=O)c1ccc(-c2ccc(CCNC[C@H](O)c3ccccc3)cc2)cc1SC1CCCCC1.Cl", "EC50 [nM]": 0.5}
{"CHEMICAL SMILES": "CCCCCOc1cc(-c2ccc(CCNC[C@H](O)c3ccccc3)cc2)ccc1C(=O)NS(C)(=O)=O", "EC50 [nM]": 2.8}
{"CHEMICAL SMILES": "CS(=O)(=O)NC(=O)c1ccc(-c2ccc(CCNC[C@H](O)c3ccccc3)cc2)cc1C1CCCC1.Cl", "EC50 [nM]": 0.41}
